# ASSAY: Bioavailability in rat
# Format: ADME, organism-based
# EXPERIMENTAL SETUP: in vivo
MEASUREMENT NAME: bioavailability (%)

[
  {
    "SMILES": "C[C@@H](Cc1ccc(F)c(F)c1)C(=O)N[C@H]1N=C(c2ccc3c(c2)OCO3)c2ccccc2N(CC(N)=O)C1=O",
    "SCALE UNIT": "%",
    "RESULT NUMBER": 22
  }
]

----------
Examples of compounds with documented AUC at 4 h follow.
# ASSAY: Area under curve at 4 hr in rat
# Assay type: ADME, organism-based
# Set-up: time < 4 hr
# EXPERIMENTAL SETUP: in vivo
MEASUREMENT NAME: AUC at 4 h (µM·h)

[
  {
    "SMILES": "C[C@@H](Cc1ccc(F)c(F)c1)C(=O)N[C@H]1N=C(c2ccc3c(c2)OCO3)c2ccccc2N(CC(N)=O)C1=O",
    "MODIFIER SIGN": "=",
    "RESULT NUMBER": 2.9
  },
  {
    "SMILES": "C[C@@H](Cc1ccc(F)c(F)c1)C(=O)N[C@H]1N=C(c2ccc3c(c2)OCO3)c2ccccc2N(C)C1=O",
    "MODIFIER SIGN": "=",
    "RESULT NUMBER": 0.09
  },
  {
    "SMILES": "C[C@@H](Cc1ccc(F)c(F)c1)C(=O)N[C@H]1N=C(c2ccc3c(c2)CCNC3=O)c2ccccc2N(C)C1=O",
    "MODIFIER SIGN": "<",
    "RESULT NUMBER": 0.004
  }
]

----------
# ASSAY: Cmax value at 1 mg/kg po in rat
# Format: ADME, organism-based
# Parameters: dose 1 mg/kg, route oral
# EXPERIMENTAL SETUP: in vivo

[
  {
    "SMILES": "C[C@@H](Cc1ccc(F)c(F)c1)C(=O)N[C@H]1N=C(c2ccc3c(c2)CCNC3=O)c2ccccc2N(C)C1=O",
    "Cmax (nM)": 2
  }
]

----------
# ASSAY: Half life period was determined
# Type: ADME
# EXPERIMENTAL SETUP: rat
MEASUREMENT NAME: half-life (h)

[
  {
    "SMILES": "C[C@@H](Cc1ccc(F)c(F)c1)C(=O)N[C@H]1N=C(c2ccc3c(c2)OCO3)c2ccccc2N(CC(N)=O)C1=O",
    "SCALE UNIT": "h",
    "RESULT NUMBER": 1.4
  }
]
